- Test System: CBL-B (Homo sapiens, UniProt Q13191)
- Construct: GST
- Sequence (Q13191 whole entry): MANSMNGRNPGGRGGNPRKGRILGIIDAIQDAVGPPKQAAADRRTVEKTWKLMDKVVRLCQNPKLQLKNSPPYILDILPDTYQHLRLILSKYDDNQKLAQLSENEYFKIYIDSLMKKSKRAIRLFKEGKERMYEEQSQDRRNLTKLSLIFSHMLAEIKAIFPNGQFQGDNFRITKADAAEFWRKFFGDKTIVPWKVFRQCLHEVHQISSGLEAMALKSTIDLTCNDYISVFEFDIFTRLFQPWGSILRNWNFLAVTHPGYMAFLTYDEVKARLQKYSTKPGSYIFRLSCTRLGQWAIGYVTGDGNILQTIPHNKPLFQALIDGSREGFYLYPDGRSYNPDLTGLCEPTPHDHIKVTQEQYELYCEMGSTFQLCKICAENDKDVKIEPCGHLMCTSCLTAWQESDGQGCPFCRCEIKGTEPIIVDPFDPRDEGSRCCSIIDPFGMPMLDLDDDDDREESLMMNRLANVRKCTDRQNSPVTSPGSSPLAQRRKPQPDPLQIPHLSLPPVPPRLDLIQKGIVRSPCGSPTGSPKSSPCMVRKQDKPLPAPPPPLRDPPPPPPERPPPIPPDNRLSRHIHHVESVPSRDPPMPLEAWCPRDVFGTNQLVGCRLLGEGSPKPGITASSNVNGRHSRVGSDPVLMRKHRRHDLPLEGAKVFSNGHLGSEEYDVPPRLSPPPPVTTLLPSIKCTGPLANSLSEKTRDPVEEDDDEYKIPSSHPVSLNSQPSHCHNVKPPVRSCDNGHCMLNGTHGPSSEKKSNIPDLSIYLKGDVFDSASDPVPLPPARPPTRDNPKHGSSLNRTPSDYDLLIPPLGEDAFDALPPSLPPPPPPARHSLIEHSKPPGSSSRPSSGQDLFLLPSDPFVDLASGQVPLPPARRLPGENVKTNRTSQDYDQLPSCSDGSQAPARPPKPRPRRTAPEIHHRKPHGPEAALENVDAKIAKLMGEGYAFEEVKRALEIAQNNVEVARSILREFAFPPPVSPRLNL
- Assay Summary: CBL-B TR-FRET IC50 screening (E1/E2 ubiquitination, Biotin-Ubiquitin, Anti GST-Tb donor / Streptavidin-d2 acceptor)
- Type: biochemical
- Condition Parameters: second part of Table 2 (head 'Patent Cmpd No / Updated Activity'); same CBL-B TR-FRET IC50 bins A-F; read-out: Updated Activity
Observation Type: IC50

Fill in: IC50 of C[C@H](c1cc(C(F)(F)F)c2cn(-c3cccc([C@H](c4nncn4C)C4CCC4)c3)c(=O)n2c1)N1CC[C@H](F)C1 (single isomer, unassigned) is ___ < 100 nM

Fill in: IC50 of C[C@H]1CCCN(Cc2cc(C(F)(F)F)c3cn(-c4cc(F)cc([C@H](c5nncn5C)C5COC5)c4)c(=O)n3c2)C1 (single isomer, unassigned) is ___ 301 to 1000 nM

Fill in: IC50 of COC1([C@H](c2cccc(-n3cc4c(C(F)(F)F)cc(CN5CCC[C@H](C)C5)cn4c3=O)c2)c2nncn2C)CCC1 (single isomer, unassigned) is ___ 1000 to 3000 nM

Fill in: IC50 of Cn1cnnc1[C@@H](c1cc(-c2cnoc2)cc(-n2cc3c(C(F)(F)F)cccn3c2=O)c1)C1CCC1 (single isomer, unassigned) is ___ > 10000 nM

Fill in: IC50 of COCCn1ccnc1-c1cc(C(F)(F)F)c2cn(-c3cccc(C4(c5nncn5C)CCC4)c3)c(=O)n2c1 is ___ 100 to 300 nM

Fill in: IC50 of C[C@H]1CCCN(Cc2cc(C(F)(F)F)c3cn(-c4cncc([C@@H](c5nncn5C)C5CCC5)c4)c(=O)n3c2)C1 is ___ < 100 nM

Further cases:
Fill in: IC50 of Cn1cnnc1[C@@H](c1cc(-c2cnsc2)cc(-n2cc3c(C(F)(F)F)cccn3c2=O)c1)C1CCC1 (single isomer, unassigned) is ___ > 10000 nM

Fill in: IC50 of CCN(Cc1cc(C(F)(F)F)c2cn(-c3cccc([C@H](c4nncn4C)C4CCC4)c3)c(=O)n2c1)S(=O)(=O)CC is ___ < 100 nM

Fill in: IC50 of COCCO[C@@H]1CCCN(Cc2cc(C(F)(F)F)c3cn(-c4cccc([C@H](c5nncn5C)C5CCC5)c4)c(=O)n3c2)C1 (single isomer, unassigned) is ___ < 100 nM

Fill in: IC50 of CN1CCC2(CN(Cc3cc(C(F)(F)F)c4cn(-c5cccc([C@H](c6nncn6C)C6CCC6)c5)c(=O)n4c3)C2)C1=O is ___ < 100 nM

Fill in: IC50 of Cn1cnnc1[C@@H](c1cccc(-n2cc3c(C(F)(F)F)cc(CN4CCC5(CC5)C4)cn3c2=O)c1)C1COC1 is ___ < 100 nM

Fill in: IC50 of C[C@@H]1CN(Cc2cc(C(F)(F)F)c3cn(-c4cc(F)cc([C@@H](c5nncn5C)C5CCC5)c4)c(=O)n3c2)CCO1 (single isomer, unassigned) is ___ > 10000 nM

Fill in: IC50 of CO[C@H]1C[C@@H]([C@H](c2cccc(-n3cc4c(C(F)(F)F)cc(CN5CCC[C@H](C)C5)cn4c3=O)c2)c2nncn2C)C1 (single isomer, unassigned) is ___ < 100 nM

Fill in: IC50 of [2H]C([2H])(c1cc(C(F)(F)F)c2cn(-c3cccc([C@@H](c4nncn4C)C4COC4)c3)c(=O)n2c1)N1CCC[C@H](C)C1 is ___ > 10000 nM

Fill in: IC50 of C[C@H]1CCCN(Cc2cc(C(F)(F)F)c3cn(-c4cccc([C@@H](c5nncn5C)C5(O)CCC5)c4)c(=O)n3c2)C1 (single isomer, unassigned) is ___ 3000 to 10000 nM

Fill in: IC50 of CO[C@H]1C[C@@](c2cccc(-n3cc4c(C(F)(F)F)cc([C@@H](C)N5CCC[C@H](C)C5)cn4c3=O)c2)(c2nncn2C)C1 (single isomer, unassigned) is ___ < 100 nM

Values from patent US20240228482A1
